System: Tyrosine-protein kinase ABL1 (Homo sapiens) (UniProt P00519)
Sequence (P00519 whole entry): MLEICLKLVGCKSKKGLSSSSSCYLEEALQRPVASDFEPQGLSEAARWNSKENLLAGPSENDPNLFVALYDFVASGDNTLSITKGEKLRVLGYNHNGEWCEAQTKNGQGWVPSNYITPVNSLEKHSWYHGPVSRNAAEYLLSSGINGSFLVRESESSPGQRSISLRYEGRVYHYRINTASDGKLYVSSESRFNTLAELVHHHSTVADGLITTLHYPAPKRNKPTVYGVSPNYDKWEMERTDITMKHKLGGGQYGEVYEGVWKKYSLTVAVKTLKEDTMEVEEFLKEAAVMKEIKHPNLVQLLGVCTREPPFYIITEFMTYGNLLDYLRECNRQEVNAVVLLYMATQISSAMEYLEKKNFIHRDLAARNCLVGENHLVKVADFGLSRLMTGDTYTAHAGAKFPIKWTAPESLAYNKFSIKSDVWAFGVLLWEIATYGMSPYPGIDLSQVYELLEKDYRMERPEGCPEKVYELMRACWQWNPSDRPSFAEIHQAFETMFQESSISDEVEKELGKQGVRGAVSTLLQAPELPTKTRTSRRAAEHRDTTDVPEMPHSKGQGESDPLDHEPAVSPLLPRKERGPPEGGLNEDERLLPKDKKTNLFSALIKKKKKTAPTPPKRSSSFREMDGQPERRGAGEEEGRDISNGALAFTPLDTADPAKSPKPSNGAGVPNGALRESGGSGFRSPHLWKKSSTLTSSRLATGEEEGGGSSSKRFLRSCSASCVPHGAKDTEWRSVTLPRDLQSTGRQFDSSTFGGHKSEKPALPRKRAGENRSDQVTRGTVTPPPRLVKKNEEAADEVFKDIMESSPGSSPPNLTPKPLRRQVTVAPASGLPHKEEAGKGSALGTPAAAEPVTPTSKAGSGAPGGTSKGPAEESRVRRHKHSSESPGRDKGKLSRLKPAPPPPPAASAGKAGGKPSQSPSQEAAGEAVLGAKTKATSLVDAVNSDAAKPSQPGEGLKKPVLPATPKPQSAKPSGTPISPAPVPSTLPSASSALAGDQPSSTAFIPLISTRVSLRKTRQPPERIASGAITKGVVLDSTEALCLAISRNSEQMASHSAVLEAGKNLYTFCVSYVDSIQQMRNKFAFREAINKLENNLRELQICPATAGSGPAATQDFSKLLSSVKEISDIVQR
Cond: Compound concentration 20.0 uM
Description: Thermal Shift Assay. Domain: start/stop: S229-K512
Residues, ends and D or L forms follow the SMILES beside them. *: point of attachment. Cbz = O=C(OCc1ccccc1)*; CH2F = FC*
# if value of ΔTm reaches 0.4 °C, tag Fulfilled; if it stays below, tag Not fulfilled

Molecule | Class
Fc1ccc(CNc2ncnc3ccc(F)cc23)cc1 | Fulfilled
CCS(=O)(=O)N1CC(CC#N)(n2cc(-c3ncnc4[nH]ccc34)cn2)C1 | Fulfilled
CC(C)[C@@H]1C(=O)N(S(C)(=O)=O)[C@@H]2CCN(C(=O)/C=C/CN3CCCCC3)[C@H]21 | Not fulfilled
COC1CCN(C(=O)c2cc(Cc3n[nH]c(=O)c4ccccc34)ccc2F)CC1 | Fulfilled
O=C1COc2c(cccc2[C@@H](O)CNCCN(C(=O)CCNCCc2ccc(Cl)c(Cl)c2)C2CCCCC2)N1 | Not fulfilled
C=CC(=O)Nc1cccc(-c2c[nH]cc2CN(C)CCN)c1 | Fulfilled
COC(=O)CC(NC(=O)C(C)NC(=O)C(NC(=O)C(CC(=O)OC)NC(=O)C(NC(=O)OCc1ccccc1)C(C)C)C(C)C)C(=O)CF (centres undefined) (Cbz-VD(OMe)VAD(OMe)-CH2F; configuration not given here) | Not fulfilled
Cc1cc(C)c(CNC(=O)c2cc(-c3ccc(N4CCN(C)CC4)nc3)cc3c2c(C)cn3C(C)C)c(=O)[nH]1 | Not fulfilled
